Attribution: the RNAGym collection of RNA variant scans (doi:10.7554/elife.80360)

Consider the following variants; for each one, report its self-cleavage.
B1: CPEB3 Ribozyme (parent)
chain: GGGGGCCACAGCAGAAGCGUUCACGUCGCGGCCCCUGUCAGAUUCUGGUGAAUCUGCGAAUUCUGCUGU

variants of: B1; assay: self-cleavage, relative activity (ratio to wild type); higher = more cleavage; co-transcriptional
Answers are plain numbers.

Reference set, count: 3
>  <mutant>
U26A G48A

>  <self-cleavage>
0.846

$$$$
>  <mutant>
C7U U55A

>  <self-cleavage>
0.914

$$$$
>  <mutant>
C39U U49A

>  <self-cleavage>
0.971

$$$$

Your task in this section: give self-cleavage for each listed record.
1. C7U U38A
2. G30C C34U
3. C12A C29G
4. G11U G30A
5. A16C U69G
6. C57A U67G

1: 0.774; 2: 0.6; 3: 0.105; 4: 0.589; 5: 0.588; 6: 0.445

Your task in this section: give self-cleavage for each listed record.
1. U44C A60U
2. G4A G37C

1: 0.441; 2: 0.149

Your task in this section: give self-cleavage for each listed record.
1. C33G U46G
2. A13C A40C
3. C24G G37A
4. G17A A42U

1. 0.604
2. 0.247
3. 0.131
4. 0.314
